# reported melting point; entries follow
propertyMeasured: melting point

[[record]]
chemicalstructure = "Nc1cc(C(F)(F)F)ccc1-n1nnc2ccccc21"
reported = "136 to 139 °C"

[[record]]
chemicalstructure = "FC(F)(F)c1ccc2c(c1)ncn2-c1cc(Cl)ccc1-n1nnc2ccccc21"
reported = "136 to 141 °C"

[[record]]
chemicalstructure = "CCOC(=O)c1ccc(Nc2cc(C(F)(F)F)ccc2-n2nnc3ccccc32)c(N)c1"
reported = "178 to 181 °C"

[[record]]
chemicalstructure = "Nc1cc(Cl)ccc1-n1nnc2ccccc21"
reported = "154 to 156 °C"

[[record]]
chemicalstructure = "Nc1cc(C(F)(F)F)ccc1Nc1cc(Cl)ccc1-n1nnc2ccccc21"
reported = "191 to 194 °C"

[[record]]
chemicalstructure = "Nc1cc(C(F)(F)F)ccc1Nc1cc(C(F)(F)F)ccc1-n1cnc2ccccc21"
reported = "205 to 207 °C"

[[record]]
chemicalstructure = "O=[N+]([O-])c1cc(C(F)(F)F)ccc1Nc1cc(Cl)ccc1-n1nnc2ccccc21"
reported = "178 to 181 °C"

[[record]]
chemicalstructure = "CCOC(=O)c1ccc2c(c1)ncn2-c1cc(C(F)(F)F)ccc1-n1nnc2ccccc21"
reported = "100 to 104 °C"

[[record]]
chemicalstructure = "FC(F)(F)c1ccc(-n2nnc3ccccc32)c(-n2cnc3cc(C(F)(F)F)ccc32)c1"
reported = "124 to 128 °C"

[[record]]
chemicalstructure = "O=[N+]([O-])c1cc(C(F)(F)F)ccc1-n1nnc2ccccc21"
reported = "133 to 136 °C"

[[record]]
chemicalstructure = "CCOC(=O)c1ccc(Nc2cc(C(F)(F)F)ccc2-n2nnc3ccccc32)c([N+](=O)[O-])c1"
reported = "192 to 196 °C"

[[record]]
chemicalstructure = "O=[N+]([O-])c1cc(C(F)(F)F)ccc1Nc1cc(C(F)(F)F)ccc1-n1cnc2ccccc21"
reported = "180 to 183 °C"

[[record]]
chemicalstructure = "ONc1cc(C(F)(F)F)ccc1-n1cnc2ccccc21"
reported = "153 to 156 °C"

[[record]]
chemicalstructure = "Nc1cc(C(F)(F)F)ccc1Nc1cc(C(F)(F)F)ccc1-n1nnc2ccccc21"
reported = "170 to 173 °C"

[[record]]
chemicalstructure = "CCOC(=O)c1ccc(-n2nnc3ccccc32)c([N+](=O)[O-])c1"
reported = "115 to 119 °C"

[[record]]
chemicalstructure = "ONc1cc(C(F)(F)F)ccc1-n1nnc2ccccc21"
reported = "151 to 154 °C"

[[record]]
chemicalstructure = "O=[N+]([O-])c1cc(C(F)(F)F)ccc1Nc1cc(C(F)(F)F)ccc1-n1nnc2ccccc21"
reported = "203 to 204 °C"

[[record]]
chemicalstructure = "O=[N+]([O-])c1cc(C(F)(F)F)ccc1-n1cnc2ccccc21"
reported = "130 to 132 °C"

[[record]]
chemicalstructure = "CCOC(=O)c1ccc(-n2nnc3ccccc32)c(N)c1"
reported = "132 to 136 °C"

[[record]]
chemicalstructure = "O=[N+]([O-])c1cc(Cl)ccc1-n1nnc2ccccc21"
reported = "134 to 137 °C"

[[record]]
chemicalstructure = "Nc1cc(C(F)(F)F)ccc1-n1cnc2ccccc21"
reported = "209 to 210 °C"

[[record]]
chemicalstructure = "Nc1cc(Cl)ccc1-n1cnc2ccccc21"
reported = "192 to 195 °C"

[[record]]
chemicalstructure = "O=[N+]([O-])c1cc(Cl)ccc1-n1cnc2ccccc21"
reported = "102 to 105 °C"

